Tested on: Wnt5a (protein binding on small-molecule microarray)
Test: small molecules binding Wnt5a protein – biophysical, small-molecule microarray, 635/667 nm fluorescence, primary screen (AID 1142);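 note: fluorescence read at 667 nm with signal to noise per printed feature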
Conditions: 635 nm fluorescence, higher = more signal
# composite z-score values compiled below
MEASUREMENT NAME: composite z-score

INSERT INTO measurements (compound, quantitative_readout) VALUES
  ('O=C(N1CCOCC1)[C@@]1(Cc2ccccc2)COC(c2ccc(OCCCO)cc2)=N1', 0.242),
  ('COCCOC(=O)N1C(=O)[C@@]2(c3cc(C#CCCO)ccc31)[C@H](c1ccccc1OCCO)N1[C@H](c3ccccc3)[C@H](c3ccccc3)OC(=O)[C@H]1[C@@H]2C(N)=O', 0.536),
  ('C=C(COC)/C(=C/C[C@H](OC(C)=O)c1ccccc1OCCO)c1cc(C(=O)OC)ccc1OC', 0.0266),
  ('CC(C)C(=C=CC[C@H](O)c1ccccc1OCCO)C[C@H](O)COCc1ccccc1', -0.042),
  ('Cc1ccc(C(C)CC(O)C2C=CC3C(=O)N(C)C(=O)C3N2Nc2ccccc2)o1 (stereo not given)', 0.342),
  ('CCCNC(=O)[C@@]1(Sc2ccc(C)cc2)CC(=O)N(Cc2ccccc2Cl)[C@@H]1c1ccc(CO)cc1I', -0.618),
  ('O=C(NCC(O)CO)[C@@]1(CCS(=O)(=O)c2ccccc2)N=C(c2ccc(OCCCO)cc2)O[C@H]1c1ccccc1 (stereo not given in full)', 0.274),
  ('COc1ccc([Si](C)(C)[C@H]2[C@H](CCO)O[C@@]3(C(=O)N(Cc4ccc(NC(=O)[C@H](C)O)cc4)c4ccccc43)[C@@H]2C)cc1', 0.185),
  ('CCCCCC1=C2CNC(Cc3ccccc3)(C(=O)OC)C=C2C(C)C1=O (stereo not given)', -0.176),
  ('COCCOC(=O)N1C(=O)[C@@]2(c3cc(C#CCNC(N)=O)ccc31)[C@H](C(=O)Nc1nc3ccccc3s1)[C@H]1C(=O)O[C@H](c3ccccc3)[C@H](c3ccccc3)N1[C@@H]2c1ccccc1OCCO', 0.553),
  ('CN(C)CCCNC(=O)[C@@H]1c2ccccc2C(=O)N(Cc2ccccc2C(F)(F)F)[C@H]1c1ccc(CO)cc1', 0.0246),
  ('CN1C(=O)C2C(C3CC3)C=C3CN(Cc4cccc(Cl)c4)[C@@H]([C@@H](O)Cc4ccccc4)C3C2C1=O (stereo not given in full)', -0.103),
  ('O=C1C[C@@](C(=O)NCc2ccccc2)(c2ccc([N+](=O)[O-])cc2)[C@@H](c2ccc(CO)cc2)N1C1CCCCC1', 0.203),
  ('C[C@@H]1ON(c2ccc(I)cc2)[C@H](c2cccc(NC(=O)OCC3c4ccccc4-c4ccccc43)c2)[C@H]1C(=O)N1C(=O)OC[C@H]1Cc1ccccc1', 0.0217),
  ('C[N+](C)(C)CCCC[C@@H]1NC(=O)[C@@H]2C[C@H](C(=O)NCc3ccc(F)cc3)[C@H](c3ccc(O)cc3)N2C1=O', -0.176);

====

Biological target: Fibroblast growth factor 10 (Homo sapiens) (UniProt O15520)
Sequence (O15520 whole entry, looked up): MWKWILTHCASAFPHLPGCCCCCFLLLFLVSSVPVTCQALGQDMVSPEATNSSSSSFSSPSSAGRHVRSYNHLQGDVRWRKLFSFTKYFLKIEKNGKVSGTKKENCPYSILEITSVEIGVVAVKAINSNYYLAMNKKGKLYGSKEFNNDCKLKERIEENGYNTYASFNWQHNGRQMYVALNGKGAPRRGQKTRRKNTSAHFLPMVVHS
Experiment: compounds binding fibroblast growth factor 10 – biochemical, small-molecule microarray, 635 nm fluorescence, primary screen (AID 1102)
Conditions: FGF10 binding, fluorescence 635 nm, higher = more signal
MEASUREMENT NAME: composite z-score

INSERT INTO measurements (compound, measurement_name, quantitative_readout) VALUES
  ('CN(C)C(=O)[C@]1(Cc2ccccc2)N=C(c2ccc(OCCCO)cc2)O[C@@H]1c1ccccc1CN=[N+]=[N-]', 'composite z-score', 1.23),
  ('COC(=O)[C@@]1(Cc2ccc(F)cc2)[C@H]2c3cc(C(=O)N4CCCC4)n(Cc4cc(F)cc5c4OCOC5)c3C[C@H]2CN1C(=O)c1ccccc1', 'composite z-score', 0.762),
  ('CCCCCCc1nc(-c2ccc(-c3ccc(Cl)c(Cl)c3)o2)cc2c1[Si](C(C)C)(C(C)C)OC2', 'composite z-score', -1.31),
  ('O=C(NCc1ccccc1)[C@@H]1c2ccccc2C(=O)N(Cc2cc(C(F)(F)F)cc(C(F)(F)F)c2)[C@H]1c1ccc(CO)cc1', 'composite z-score', 1.13),
  ('C=C(CCCC)/C(=C/C[C@H](OC(C)=O)c1cccc(OCCO)c1)c1cnc2ccccc2c1', 'composite z-score', -0.252),
  ('CC(C)C(=C=CC[C@H](O)c1ccccc1OCCO)C[C@H](O)c1cc(Cl)cc(Cl)c1O', 'composite z-score', 1.11),
  ('CC1CC/C=C\[C@H]2OC34C=CCN(c5ccc6ccccc6c5)C(=O)[C@H]3N(C(C)CO)C(=O)[C@@H]4C2C(=O)O1 (stereo partly specified)', 'composite z-score', -0.83),
  ('COc1cc(OC)c(C(O)C2C=CC3C(=O)N(c4ccccc4)C(=O)C3N2Nc2ccc(C(C)C)cc2)cc1Br (stereo unspecified)', 'composite z-score', 0.909),
  ('CC1CC/C=C\[C@H]2OC34C=CCN(c5ccc(Cl)cc5)C(=O)[C@H]3N(CCCCCCO)C(=O)[C@]4(C)C2C(=O)O1 (stereo partly specified)', 'composite z-score', -0.533),
  ('O=C1C[C@@](C(=O)O)(c2ccc([N+](=O)[O-])cc2)[C@@H](c2ccc(CO)cc2)N1C1CCCCC1', 'composite z-score', 0.869),
  ('COC(=O)[C@@]1(Cc2ccccc2)[C@H]2c3cc(C(=O)N(C)C)n(Cc4ccc(C(F)(F)F)nc4)c3C[C@H]2CN1C(=O)c1ccccc1', 'composite z-score', 1.08),
  ('O=C1C[C@@](C(=O)NCc2ccccc2)(c2ccc([N+](=O)[O-])cc2)[C@@H](c2ccc(CO)cc2)N1C1CCCCC1', 'composite z-score', 0.42),
  ('C#CCN1[C@@H](Cc2ccccc2)C(=O)O[C@H](Cc2ccccc2)[C@@H]1/C=C/C1CC1', 'composite z-score', 0.209),
  ('Cc1ccc(F)cc1S(=O)(=O)N[C@H]1CCN(Cc2ccc(OC(C)C)cc2)C1', 'composite z-score', 0.44),
  ('COCCCNC(=O)[C@@]1(CCS(=O)(=O)c2ccccc2)COC(c2ccc(OCCCO)cc2)=N1', 'composite z-score', 0.946),
  ('O=C(NCC(O)CO)C1N=C(c2ccc(OCCCO)cc2)N(c2ccccc2)O1 (stereo unspecified)', 'composite z-score', 0.897);

====

Assay: S. pombe growth modifiers, basal conditions – strain 972, OD600, 24 h, no modulator, primary screen (AID 1090);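 note: basal condition with compound alone and no growth modifier present; test concentration not given here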
Settings: S. pombe 972 growth, higher = more signal, called active from +8 up or from −8 down
MEASUREMENT NAME: z-score

INSERT INTO results (molecule, measurement_name, quantitative_readout) VALUES
  ('COC(=O)C(CC#Cc1ccc2c(c1)[C@]1(C(=O)N2)[C@H](c2ccc(OCCO)cc2)N2[C@H](c3ccccc3)[C@H](c3ccccc3)OC(=O)[C@H]2[C@@H]1C(=O)N1CCCCCCC1)C(=O)OC', 'z-score', 0.736),
  ('CO[C@H]1O[C@H](CO)[C@@H](OC(=O)Nc2ccccc2-c2ccccc2)[C@H](OC(=O)Nc2ccccc2)[C@H]1OC(=O)Nc1ccccc1', 'z-score', 1.21),
  ('CC1CC/C=C\[C@H]2OC34C=CCN(c5ccc(Cl)cc5)C(=O)[C@H]3N(CCCCCCO)C(=O)[C@]4(C)C2C(=O)O1 (some centres undefined)', 'z-score', -0.884),
  ('CN(C)C(=O)[C@]1(Cc2ccccc2)N=C(c2ccc(OCCCO)cc2)O[C@@H]1c1ccccc1CN=[N+]=[N-]', 'z-score', -0.531);

====

Test: budding yeast growth changes without added modifier – OD600, strain BY4716, 24 h, basal condition, primary screen (AID 1173)
Conditions: S. cerevisiae BY4716 growth, OD600, 24 h; higher = more signal, called active from +8 up or from −8 down
Classify as follows. Reported z-score greater than or equal to 0.04: TRUE. Reported z-score below: FALSE.

INSERT INTO assay_data (molecule, classification) VALUES
  ('O=C1[C@H]2C=C(I)[C@H](C[C@@H]2OCCCCCCO)[C@@]12CO2', 'FALSE'),
  ('COc1cc(C(O)C2C=CC3C(=O)N(c4ccccc4)C(=O)C3N2Nc2ccccc2)cc(OC)c1OC (stereo unspecified)', 'FALSE'),
  ('COCCOC(=O)N1C(=O)[C@@]2(c3cc(C#Cc4ccc(OC)cc4)ccc31)[C@H](c1ccc(OCCO)cc1)N1[C@H](c3ccccc3)[C@H](c3ccccc3)OC(=O)[C@H]1[C@@H]2C(=O)NC[C@H](O)c1ccccc1', 'TRUE'),
  ('CCCCCC1=C2CNC(CC(C)C)(C(=O)OC)C=C2C(C)C1=O (stereo unspecified)', 'TRUE'),
  ('COc1cc(CO)cc(I)c1O[C@H]1C=C(C(=O)NCCO)C[C@@H](NC2CCCCCC2)[C@@H]1O', 'FALSE'),
  ('COCCOC(=O)N1C(=O)[C@@]2(c3cc(C#CCCO)ccc31)[C@H](c1ccccc1OCCO)N1[C@H](c3ccccc3)[C@H](c3ccccc3)OC(=O)[C@H]1[C@@H]2C(N)=O', 'TRUE'),
  ('CCCCC(O)C1C=CC2C(=O)N(c3ccccc3)C(=O)C2N1Nc1ccc(C#N)cc1 (stereo unspecified)', 'FALSE'),
  ('CO[C@H]1O[C@H](CO)[C@@H](OC(=O)Nc2ccccc2)[C@H](OC(=O)Nc2ccccc2)[C@H]1OC(=O)Nc1ccccc1', 'FALSE'),
  ('COC(=O)[C@]1(CCC(=O)OC(C)(C)C)N=C(c2ccc(OCCCO)cc2)O[C@@H]1c1ccccc1N=[N+]=[N-]', 'TRUE'),
  ('CCOC(=O)C1=CC[C@@H](c2ccc(OC)cc2)N(S(=O)(=O)c2ccc(C)cc2)[C@H]1c1ccc(C)cc1', 'TRUE'),
  ('C=CCOC(=O)[C@H]1[C@@H]2C(=O)O[C@@H](c3ccccc3)[C@@H](c3ccccc3)N2[C@@H](c2ccc(OCCOC(=O)[C@@H]3C[C@@H]4C(=O)N[C@@H](CCCC[N+](C)(C)C)C(=O)N4[C@@H]3c3ccc(O)cc3)cc2)[C@]12C(=O)Nc1ccc(I)cc12', 'TRUE'),
  ('CCCCN1CC=CC23O[C@@H]4/C=C\CCCOC(=O)C4[C@H]2C(=O)N(C(CO)C(C)C)[C@@H]3C1=O (stereo partly specified)', 'TRUE'),
  ('COC(=O)C[C@H]1O[C@@]2(C[C@@H]1[Si](C)(C)C)C(=O)N(C)c1ccccc12', 'FALSE'),
  ('N#Cc1ccc(C(O)C2C=CC3C(=O)NC(=O)C3N2Nc2ccc(Cl)cc2Cl)cc1 (stereo unspecified)', 'FALSE'),
  ('COc1ccc(CCNC(=O)[C@@H]2c3ccccc3C(=O)N(Cc3ccccc3OC)[C@H]2c2ccc(CO)cc2)cc1', 'TRUE'),
  ('CCCCC(O)C1C=CC2C(=O)N(c3ccccc3)C(=O)C2N1Nc1ccccc1 (stereo unspecified)', 'FALSE');

Cited source for all entries: PubChem BioAssay
